- SYSTEM_NAME: Recombinant human his-tagged IGF 1R extracellular domain protein (human) (UniProt P08069)
- TEST: SPR, captured IgG, IGF-1R ECD-his analyte, dissociation pH 7.4
Listed here: items and their measured Kd.

# BINDER, Kd / pM
rows = [
    ("VRDN-02521 (antibody, V domains shown) VH: EVQLVQSGGGLVKPGGSLRLSCAASGFTFSSFAMHWVRQAPGKGLEWISVIDTRGATYYADSVKGRFTISRDNAKNSLYLQMNSLRAEDTAVYYCARLGNHYYGMDVWGQGTTVTVSS VL: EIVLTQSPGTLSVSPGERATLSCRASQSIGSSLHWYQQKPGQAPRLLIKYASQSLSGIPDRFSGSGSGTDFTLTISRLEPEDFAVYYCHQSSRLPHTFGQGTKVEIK", 1480),
    ("VRDN-02522 (antibody, V domains shown) VH: EVQLVQSGGGLVKPGGSLRLSCAASGFTFSSFAMHWVRQAPGKGLEWISVIDTRGATYYADSVKGRFTISRDNAKNSLYLQMNSLRAEDTAVYYCARLGNFHYGMDVWGQGTTVTVSS VL: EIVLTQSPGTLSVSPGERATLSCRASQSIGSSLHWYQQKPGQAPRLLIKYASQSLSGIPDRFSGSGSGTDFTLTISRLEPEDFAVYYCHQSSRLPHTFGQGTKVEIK", 370),
    ("VRDN-02527 (antibody, V domains shown) VH: EVQLVQSGGGLVKPGGSLRLSCAASGFTFSSFAMHWVRQAPGKGLEWISVIDTRGATYYADSVKGRFTISRDNAKNSLYLQMNSLRAEDTAVYYCARLGNFYYGMDHWGQGTTVTVSS VL: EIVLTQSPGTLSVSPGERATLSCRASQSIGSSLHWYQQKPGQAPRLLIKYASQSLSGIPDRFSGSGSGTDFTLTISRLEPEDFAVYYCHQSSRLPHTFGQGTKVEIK", 225),
]
